- Protocol: Cell Titer-fluor cell activity assay in HCV-1b replicon cells (CC50)
- Format: cell-based
Property Label: CC50 at 3 days

Example entries and their recorded answers appear below.
1) COC(=O)N[C@H](C(=O)N1CCC[C@H]1c1ncc(-c2ccc(-c3ccc(-c4cnc([C@H]5CCCC[C@@H]5C(=O)NC5(c6cccnc6)CC5)[nH]4)cc3)cc2)[nH]1)C(C)C; > 5 nM
2) COC(=O)N[C@H](C(=O)N1CCC[C@H]1c1ncc(-c2ccc(-c3ccc(-c4cnc(C5C6CCC(C6)[C@H]5C(=O)NCc5ccc(C(C)C)nc5)[nH]4)cc3)cc2)[nH]1)[C@@H](C)OC (stereo partly drawn); > 1 nM

Next up:
Measured CC50 at 3 days, COC(=O)N[C@H](C(=O)N1CCC[C@H]1c1ncc(-c2ccc(-c3ccc(-c4cnc([C@H]5C6CCC(C6)[C@@H]5C(=O)NCc5ccccc5N)[nH]4)cc3)cc2)[nH]1)C(C)C (stereo partly drawn) : > 1 nM

Data provenance: patent US10160771B2
